Each recorded value in this set is attributed to PubChem BioAssay AID1963868.

# Lookup of reported IC50 keyed by entry
# Tested on: KRAS PDC tumor spheroids (HUVEC+MSC), viability
# test-name: Anticancer human tumor 254851-301-R-J1-PDC patient-derived colon carcinoma cell line growth inhibition [KRAS2]
# study-conditions: curve of first compound; second compound 0.316 µM

molecule	assayed-target	IC50
CC1(C)CCC(CN2CCN(c3ccc(C(=O)NS(=O)(=O)c4ccc(NCC5CCOCC5)c([N+](=O)[O-])c4)c(Oc4cnc5[nH]ccc5c4)c3)CC2)=C(c2ccc(Cl)cc2)C1 + C=CC(=O)N1CCN(c2nc(=O)n(-c3c(C)ccnc3C(C)C)c3nc(-c4c(O)cccc4F)c(F)cc23)C(C)C1	KRAS PDC tumor spheroids (HUVEC+MSC), viability	> 10 µM
CCNC(=O)CC1N=C(c2ccc(Cl)cc2)c2cc(OC)ccc2-n2c(C)nnc21 (stereo not given) + CNCc1ccccc1-c1csc(C(C)Nc2nc(C)nc3cc(OC)c(OC)cc23)c1	KRAS PDC tumor spheroids (HUVEC+MSC), viability	> 10 µM
Cn1ncnc1[C@H]1c2n[nH]c(=O)c3cc(F)cc(c23)N[C@@H]1c1ccc(F)cc1 + CNCc1ccccc1-c1csc(C(C)Nc2nc(C)nc3cc(OC)c(OC)cc23)c1	KRAS PDC tumor spheroids (HUVEC+MSC), viability	> 0.1 µM
CCNC(=O)CC1N=C(c2ccc(Cl)cc2)c2cc(OC)ccc2-n2c(C)nnc21 (stereo not given) + C=CC(=O)N1CCN(c2nc(OCC3CCCN3C)nc3c2CCN(c2cccc4cccc(C)c24)C3)CC1CC#N	KRAS PDC tumor spheroids (HUVEC+MSC), viability	> 10 µM
CCN1CCN(Cc2ccc(Nc3ncc(F)c(-c4cc(F)c5nc(C)n(C(C)C)c5c4)n3)nc2)CC1 + C=CC(=O)N1CCN(c2nc(=O)n(-c3c(C)ccnc3C(C)C)c3nc(-c4c(O)cccc4F)c(F)cc23)C(C)C1	KRAS PDC tumor spheroids (HUVEC+MSC), viability	> 1 µM

---

# System: KRAS PDC tumor spheroids (HUVEC+MSC), viability
# test-name: Anticancer human tumor 254851-301-R-J1-PDC cell line growth inhibition [KRAS2];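 note: spheroids exposed to compounds for seven days before readout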;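 for viability, T/C: 100% = DMSO vehicle control luminescence of the spheroids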
# study-conditions: second compound 0.316 µM; first compound 0.0316 µM; stronger effect = lower value
# key: entry, value: viability, T/C
property-label: viability, T/C (%)

compound	unit-of-measure	val
CC1(C)CCC(CN2CCN(c3ccc(C(=O)NS(=O)(=O)c4ccc(NCC5CCOCC5)c([N+](=O)[O-])c4)c(Oc4cnc5[nH]ccc5c4)c3)CC2)=C(c2ccc(Cl)cc2)C1 + C=CC(=O)N1CCN(c2nc(=O)n(-c3c(C)ccnc3C(C)C)c3nc(-c4c(O)cccc4F)c(F)cc23)C(C)C1	%	106
O=C(c1cc(Cc2n[nH]c(=O)c3ccccc23)ccc1F)N1CCN(C(=O)C2CC2)CC1 + COc1cc2nc(C)nc(NC(C)c3cc(N)cc(C(F)(F)F)c3)c2cc1OC1CCOC1	%	94.5

---

# System: KRAS PDC tumor spheroids (HUVEC+MSC), viability
# test-name: Anticancer human tumor 254851-301-R-J1-PDC cell line growth inhibition [KRAS2];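 note: spheroids exposed to compounds for seven days before readout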
# study-conditions: compound alone; run of 07/12/2021
# IC50 annotations
property-label: IC50

molecule	val
CNCc1ccccc1-c1csc(C(C)Nc2nc(C)nc3cc(OC)c(OC)cc23)c1 (stereo not given)	4.73 µM [middle of 6 runs]
CC1OCC2(CCN(c3cnc(Sc4ccnc(N)c4Cl)c(N)n3)CC2)C1N (stereo not given)	> 10 µM
C=CC(=O)N1CCN(c2nc(=O)n(-c3c(C)ccnc3C(C)C)c3nc(-c4c(O)cccc4F)c(F)cc23)C(C)C1 (stereo not given)	> 10 µM
C=CC(=O)N1CCN(c2nc(OCC3CCCN3C)nc3c2CCN(c2cccc4cccc(C)c24)C3)CC1CC#N (stereo not given)	> 3.16 µM
COc1cc2nc(C)nc(NC(C)c3cc(N)cc(C(F)(F)F)c3)c2cc1OC1CCOC1 (stereo not given)	> 10 µM
